Value type: melting point

These solved cases illustrate the format of a correct answer.
>  <Compound>
COc1ccccc1NC(=O)Nc1cccc(-n2c(=O)c(CCC(=O)N(C)C)nc3cccnc32)c1

>  <melting point>
242 to 245 °C

$$$$
>  <Compound>
CC(=O)Nc1ccc2c(c1)cc(C(=O)c1ccc(C)cc1)n2C

>  <melting point>
211 to 213 °C

$$$$
>  <Compound>
NC(=O)c1ccc(COc2cccc3c2CN(C2CCC(=O)NC2=O)C3=O)cc1 (stereo not given)

>  <melting point>
278 to 280 °C

$$$$
>  <Compound>
Clc1ccc(-c2ccco2)nn1

>  <melting point>
103 to 104 °C

$$$$
>  <Compound>
CCSC(=S)SC1NC(=O)C1C(C)OC(C)=O (mixture of isomers)

>  <melting point>
101 to 105 °C

$$$$

Which melting point is listed for Cc1c2c(c(C(C)c3ccc(C(C)C)cc3)c(C)c1NC(=O)CC(C)(C)C)OCC2 (stereo not given) ?
189 to 190 °C

Would you kindly repeat that for CCOC(=O)C(C)Oc1ccc(C(C)=O)cc1 (stereo not given) ?
49.6 °C

Would you kindly repeat that for "CCCCc1oc2ccccc2c1-c1ncc(-c2ccc3cc(O)ccc3c2)o1" ?
184 to 186 °C

Would you kindly repeat that for "O=c1c(Cl)c(OCc2ccc(F)cc2F)ccn1Cc1cccc2cnccc12" ?
235 to 238 °C

Would you kindly repeat that for "N#Cc1ncc(Cl)cc1F" ?
72 to 73 °C

Would you kindly repeat that for CNC(=O)C1=C(OC(C)C)c2cc(OC)ccc2S1=O (stereo not given) ?
123 to 124 °C

Would you kindly repeat that for "N#Cc1cnn(-c2ccc(Cl)c(Cl)c2Cl)c1N" ?
154 to 156 °C

* * *

Value type: melting point

These solved cases illustrate the format of a correct answer.
>  <Record smiles>
Fc1nc2ccccc2cc1Br

>  <Result>
75 to 76 °C

$$$$
>  <Record smiles>
CCN(CCOC)C(=O)c1cc(-c2ccccc2)c(=O)n2c1-c1ccccc1C2

>  <Result>
139 to 140 °C

$$$$

Attention now shifts to the item below.
Which melting point is listed for "CCOC(=O)c1cc(OC)c(OC)c(OC)c1-c1c(C(=O)OCC)cc(OC)c2c1OCO2" ?
95 to 96.5 °C

* * *

Value type: melting point

These solved cases illustrate the format of a correct answer.
>  <Molecule>
CC(c1oc2ccccc2c(=O)c1-c1cccc(F)c1)n1nc(-c2cc(O)ccc2Cl)c2c(N)ncnc21 (centres undefined)

>  <melting point>
192 to 195 °C

$$$$
>  <Molecule>
Brc1ccc(-c2ccc3nncn3n2)cc1

>  <melting point>
209 to 211 °C

$$$$

Which melting point is listed for "CC(C)(C)OC(=O)COc1ccc(C=O)cc1" ?
56 to 57 °C

Would you kindly repeat that for Cc1nc2cc3c(cc2o1)C1(CO3)C(=O)N(CC2CCCO2)c2ccccc21 (centres undefined) ?
188 to 190 °C

* * *

Below is a list of entries, each paired with its recorded melting point value.

>  <Molecule>
N#Cc1cn(-c2c(Cl)cc(C(F)(F)F)cc2Cl)nc1[N+](=O)[O-]

>  <melting point>
163 to 165 °C

$$$$
>  <Molecule>
Cc1cn(C)c2c1N(C(=O)CCN1CCN(C)CC1)c1ccccc1NC2=O

>  <melting point>
187 °C

$$$$

Attention now shifts to the item below.
Which melting point is listed for CC(C)CC(NC(=O)Cc1ccc(NC(=O)Nc2c(Cl)cccc2Cl)cc1)c1ncc(CCC(=O)O)s1 (stereo not drawn) ?
148 to 150 °C

* * *

Value type: melting point

These solved cases illustrate the format of a correct answer.
>  <Molecule>
CC(=O)C(=CNc1cc(Cl)c(Cl)c(C(=O)O)c1Cl)C(C)=O

>  <melting point>
242 to 244 °C

$$$$
>  <Molecule>
COc1ccc(C=Cc2ccncc2)cc1

>  <melting point>
128 to 130 °C

$$$$
>  <Molecule>
COc1cccc2c(=O)[nH]c(-c3ccccc3)cc12

>  <melting point>
227 to 231 °C

$$$$
>  <Molecule>
Cc1ccccc1-c1ccc(Br)cc1C=O

>  <melting point>
71 to 73 °C

$$$$
>  <Molecule>
O=c1c(-c2ccc(O)cc2)coc2ccccc12

>  <melting point>
237 to 238 °C

$$$$
>  <Molecule>
O=C1NCCc2c1cc1n2CCCC1

>  <melting point>
195 to 197 °C

$$$$

Which melting point is listed for "O/N=C(\Cl)c1cccc(Cl)c1" ?
58 to 60 °C

Would you kindly repeat that for CCCCC(CC)COC(=O)Nc1ccc(C=C(C#N)C(=O)OCC)cc1 (stereo unspecified) ?
105 °C

Would you kindly repeat that for CC(COc1ccc(CC2SC(=O)NC2=O)cc1)NCC(O)CN(C)c1ccccc1 (stereo unspecified) ?
115 to 125 °C

Would you kindly repeat that for "N#Cc1cc(F)ccc1N1CCN(Cc2cn3cc(Cl)ccc3n2)CC1" ?
179 to 180 °C

Would you kindly repeat that for "CC(C)(O)C[C@@H]1CO[C@](C)([C@H]2CC[C@H]3[C@@H](O)CCC[C@@]32C)C1" ?
67 °C

* * *

Below is a list of entries, each paired with its recorded melting point value.

These solved cases illustrate the format of a correct answer.
>  <Record smiles>
Cc1oc(-c2ccccc2)nc1CCOc1ccc(CC(C(=O)O)C(=O)O)cc1

>  <melting point>
173 to 175 °C

$$$$
>  <Record smiles>
Cc1c(Cl)cccc1N=Cc1ccccc1Cl

>  <melting point>
83 to 85 °C

$$$$
>  <Record smiles>
CCCCCS(=O)(=O)NC(=O)CCc1cc(OC(C)C)nn1Cc1ccc(Cl)cc1Cl

>  <melting point>
126 to 129 °C

$$$$
>  <Record smiles>
CCCCCCCNC(=O)Oc1ccc2c(c1)CCCN2

>  <melting point>
67 °C

$$$$
>  <Record smiles>
Brc1ccc(Nc2nnc(Cc3ccncc3)c3ccccc23)cc1

>  <melting point>
201 to 202 °C

$$$$

Which melting point is listed for "CC(C)=NOCc1nc2c(N)nc3cc(Br)cnc3c2n1CC(C)C" ?
176 to 178 °C

Would you kindly repeat that for "COc1ccc(-c2nc(Cn3ccnc3)cs2)cc1" ?
89 to 90 °C

Would you kindly repeat that for "CC1(C)OC(=O)C(OC2CCCC2)=C1c1ccc(S(C)(=O)=O)cc1" ?
121 to 122 °C

* * *

Value type: melting point

>  <Compound>
Cc1ccccc1C(=O)NCN1CCN(c2ccccc2C#N)CC1

>  <Value type>
melting point

>  <Result>
62 to 64 °C

$$$$

Attention now shifts to the item below.
Which melting point is listed for "Cc1cccc2c1COC(=O)N2" ?
222 to 226 °C

* * *

Below is a list of entries, each paired with its recorded melting point value.

>  <Molecule>
NCc1noc(-c2ncn3c2[C@@H]2CCN2C(=O)c2c(Cl)cccc2-3)n1

>  <melting point>
206 to 208 °C

$$$$

Which melting point is listed for CCOC1Nc2c(ccc(C)c2OC(C)=O)C(=O)N2CCCC12 (configuration not stated) ?
145 to 147 °C

Would you kindly repeat that for "NC(=O)NC(=O)c1ccc2ccccc2c1" ?
207 to 208 °C

Would you kindly repeat that for "N#Cc1ccc(Cn2cncn2)cc1-c1ccc(OS(N)(=O)=O)cc1" ?
159 to 162 °C

Would you kindly repeat that for OC1Cc2cc(I)ccc2Sc2ccccc21 (configuration not stated) ?
131 to 133 °C

Would you kindly repeat that for "O=C(CNC(=O)c1ccc(Cl)c(Cl)c1)c1ccoc1" ?
133 to 134 °C

* * *

Below is a list of entries, each paired with its recorded melting point value.
Output spec: scalar in °C, unitless text.

>  <Compound>
CC1(C)C(=O)N(CCCN(CCCN2C(=O)c3ccccc3C(C)(C)C2=O)Cc2ccccc2)C(=O)c2ccccc21

>  <Unit tag>
°C

>  <Result number>
108

$$$$

Attention now shifts to the item below.
Which melting point is listed for Cc1ccc2[nH]c3c(c2c1)CC(C)CC3 (stereo not given) ?
112

* * *

Below is a list of entries, each paired with its recorded melting point value.
Output spec: scalar in °C, unitless text.

>  <Molecule>
Cc1cc(F)ccc1-c1cc(OC2SCC(O)C(O)C2O)ccn1 (stereo not given)

>  <Unit tag>
°C

>  <melting point>
147

$$$$

Attention now shifts to the item below.
Which melting point is listed for "CNc1nc(Nc2ccc(CNC(=O)OC(C)(C)C)cc2)ncc1[N+](=O)[O-]" ?
260

* * *

Below is a list of entries, each paired with its recorded melting point value.

These solved cases illustrate the format of a correct answer.
>  <Compound>
CC(CN=C(O)C(Cl)=C(Cl)C(=O)O)Cc1ccc(C(C)(C)C)cc1 (stereo not drawn)

>  <melting point>
64 to 65 °C

$$$$
>  <Compound>
O=C(c1ccn2c1CSC2c1cccnc1)c1c[nH]c2cc(Cl)ccc12 (stereo not drawn)

>  <melting point>
263 to 265 °C

$$$$

Attention now shifts to the item below.
Which melting point is listed for NC(=O)c1cc2ccc(OCC(O)CCl)cc2o1 (stereo not drawn) ?
109 to 110 °C
